- measurement notes: viability of PBMCs (CTG and propidium iodide exclusion)
- Format: cell-based, human
- assay setup: human, PMBC 24H; 0.5 µM; rep1-4; read-out: PBMC viability relative to 0 µM = 100 (Figure S8a)
metric: viability at 24 h, 0.5 µM (%)

>>> measurement("CCCCCCCOc1ccc(OCC(=O)c2nc(C(=O)OC)cs2)cc1 [GK420]")
99

* * *

# maps each entry to its inhibition at 0.091 mole fraction
- test system: recombinant human cPLA2α (Homo sapiens, UniProt P47712)
- Sequence (P47712 whole entry): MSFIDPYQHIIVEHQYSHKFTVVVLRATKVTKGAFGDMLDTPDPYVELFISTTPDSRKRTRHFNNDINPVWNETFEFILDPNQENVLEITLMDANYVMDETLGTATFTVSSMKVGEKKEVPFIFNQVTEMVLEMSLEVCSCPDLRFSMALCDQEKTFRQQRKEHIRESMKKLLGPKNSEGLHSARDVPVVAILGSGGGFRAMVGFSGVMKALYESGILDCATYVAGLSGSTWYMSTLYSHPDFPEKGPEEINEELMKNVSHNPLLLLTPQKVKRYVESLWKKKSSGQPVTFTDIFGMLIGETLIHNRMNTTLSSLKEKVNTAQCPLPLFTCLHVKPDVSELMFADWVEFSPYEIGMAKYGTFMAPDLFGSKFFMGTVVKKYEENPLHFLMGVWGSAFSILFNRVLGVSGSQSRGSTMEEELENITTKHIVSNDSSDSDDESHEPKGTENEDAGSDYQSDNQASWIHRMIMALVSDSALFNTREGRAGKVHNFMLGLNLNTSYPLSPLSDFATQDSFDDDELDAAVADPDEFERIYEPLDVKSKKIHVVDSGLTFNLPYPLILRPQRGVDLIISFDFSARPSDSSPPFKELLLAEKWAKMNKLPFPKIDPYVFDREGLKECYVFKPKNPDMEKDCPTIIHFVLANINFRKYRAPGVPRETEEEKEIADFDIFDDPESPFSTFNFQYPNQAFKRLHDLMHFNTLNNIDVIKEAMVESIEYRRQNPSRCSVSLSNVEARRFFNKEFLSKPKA
- measurement notes: radioactivity-based mixed micelle assay, cPLA2α
- Assay type: biochemical
- assay setup: 0.091 mole fraction; read-out: cPLA2α % Inhib
metric: inhibition at 0.091 mole fraction (%)

>>> measurement("CCCCCCOc1ccc(SCC(=O)c2nc(C(=O)OC)cs2)cc1 [GK419]")
50
>>> measurement("CCCCCCCCc1ccc(OCC(=O)c2nc(C(=O)OCC)cs2)cc1 [GK401]")
89
>>> measurement("CCCCCCCOc1ccc(OC(C)C(=O)c2nc(C(=O)OC)cs2)cc1 (centres unmarked) [GK439]")
97
>>> measurement("CCCCCCCOc1ccc(OCC(=O)c2nc(C(=O)OC)cs2)cc1 [GK420]")
98
>>> measurement("COC(=O)c1csc(C(=O)COc2ccc(Oc3ccccc3)cc2)n1 [GK403]")
95

* * *

# maps each entry to its IC50
- System: panel of 66 cancer cell lines
- measurement notes: cancer cell line screen, proliferation assay (ATPlite, 72 h)
- Assay type: cell-based, human
- assay setup: Homo sapiens, BT-549, BT-549; read-out: IC50
metric: IC50 (µM)

>>> measurement("CCCCCCCOc1ccc(OCC(=O)c2nc(C(=O)OC)cs2)cc1 [GK420]")
15.2
>>> measurement("CCCCCCCCc1ccc(OCC(=O)c2nc(C(=O)OC)cs2)cc1 [GK470]")
22.7

* * *

# maps each entry to its pIC50
- Tested on: panel of 66 cancer cell lines
- measurement notes: cancer cell line screen, proliferation assay (ATPlite, 72 h)
- Type: cell-based, human
- assay setup: Homo sapiens, ASPC1, AsPC-1; read-out: IC50
pIC50: −log10 of the molar value.
metric: pIC50

>>> measurement("CCCCCCCOc1ccc(OCC(=O)c2nc(C(=O)OC)cs2)cc1")
4.60
>>> measurement("CCCCCCCCc1ccc(OCC(=O)c2nc(C(=O)OC)cs2)cc1")
4.83

* * *

- Test system: panel of 66 cancer cell lines
- measurement notes: cancer cell line screen, proliferation assay (ATPlite, 72 h)
- Assay type: cell-based, human
- assay setup: Homo sapiens, RT-4, RT4; read-out: IC50
metric: IC50 (µM)

>>> measurement("CCCCCCCOc1ccc(OCC(=O)c2nc(C(=O)OC)cs2)cc1")
33.4
>>> measurement("CCCCCCCCc1ccc(OCC(=O)c2nc(C(=O)OC)cs2)cc1")
16.5

* * *

- measurement notes: stability in human plasma (LC-MS/MS)
- Assay type: in vitro ADME
- assay setup: % of the compound remaining after 20 h
- Method: The stability of the analogs in human plasma was studied over approximately 24 h by LC-MS/MS and the results at 4 h and the final timepoint (20–25 h) are included in Table 1. The metabolic stability of the compounds was determined through in vitro stability assays in human plasma. […] Two or three samples were each measured in technical triplicates to give the final % recovery.
# maps each entry to its Stability in human plasma 20+ h
metric: Stability in human plasma 20+ h (%)

>>> measurement("COC(=O)c1csc(C(=O)C(C)Oc2ccc(Oc3ccccc3)cc2)n1 (stereo not shown)")
1.65
>>> measurement("CCCCCCOc1ccc(SCC(=O)c2nc(C(=O)OC)cs2)cc1")
52.7
>>> measurement("CCCCCCCOc1ccc(OCC(=O)c2nc(C(=O)OC)cs2)cc1")
18.05
>>> measurement("CCCCCCSc1ccc(OCC(=O)c2nc(C(=O)OC)cs2)cc1")
8.05

* * *

- Tested on: panel of 66 cancer cell lines
- measurement notes: cancer cell line screen, proliferation assay (ATPlite, 72 h)
- Type: cell-based, human
- assay setup: Homo sapiens, C-33-A, C-33 A; read-out: IC50
pIC50: −log10 of the molar value.
# maps each entry to its pIC50
metric: pIC50

>>> measurement("CCCCCCCCc1ccc(OCC(=O)c2nc(C(=O)OC)cs2)cc1")
4.83
>>> measurement("CCCCCCCOc1ccc(OCC(=O)c2nc(C(=O)OC)cs2)cc1")
5.76

* * *

- Test system: panel of 66 cancer cell lines
- measurement notes: cancer cell line screen, proliferation assay (ATPlite, 72 h)
- Assay type: cell-based, human
- assay setup: Homo sapiens, Daoy; read-out: IC50
pIC50: −log10 of the molar value.
metric: pIC50

>>> measurement("CCCCCCCCc1ccc(OCC(=O)c2nc(C(=O)OC)cs2)cc1 [GK470]")
4.80
>>> measurement("CCCCCCCOc1ccc(OCC(=O)c2nc(C(=O)OC)cs2)cc1 [GK420]")
4.87

* * *

- Test system: panel of 66 cancer cell lines
- measurement notes: cancer cell line screen, proliferation assay (ATPlite, 72 h)
- Assay type: cell-based, human
- assay setup: Homo sapiens, AN3-CA, AN3 CA; read-out: IC50
pIC50: −log10 of the molar value.
metric: pIC50

>>> measurement("CCCCCCCCc1ccc(OCC(=O)c2nc(C(=O)OC)cs2)cc1")
4.74
>>> measurement("CCCCCCCOc1ccc(OCC(=O)c2nc(C(=O)OC)cs2)cc1")
4.94

* * *

- System: HL-60 cells
- measurement notes: cell viability, resazurin assay, HL-60
- Format: cell-based, human
- assay setup: Homo sapiens, HL-60; resazurin assay
pIC50: −log10 of the molar value.
metric: pIC50

>>> measurement("CCCCCCCOc1ccc(OCC(=O)c2nc(C(=O)OC)cs2)cc1 [GK420]")
5.34

* * *

- test system: recombinant human cPLA2α (Homo sapiens)
- measurement notes: radioactivity-based mixed micelle assay, cPLA2α
- Format: biochemical
- assay setup: individual technical replicate; read-out: cPLA2 % inhibition at 0.091 mole fraction
Decide using inhibition at 0.091 mole fraction: a value greater than or equal to 80% is MET, a smaller one is NOT MET.

>>> group_label("CCCCCCCOc1ccc(OC(C)C(=O)c2nc(C(=O)OC)cs2)cc1 (centres unmarked) [GK439]")
"MET"
>>> group_label("CCCCCCOc1ccc(SCC(=O)c2nc(C(=O)OC)cs2)cc1 [GK419]")
"NOT MET"
>>> group_label("CCCCCCCCc1ccc(OCC(=O)c2nc(C(=O)OCC)cs2)cc1 [GK401]")
"MET"
>>> group_label("COC(=O)c1csc(C(=O)COc2ccc(Oc3ccc(F)cc3)cc2)n1 [GK440]")
"MET"

* * *

- System: panel of 66 cancer cell lines
- measurement notes: cancer cell line screen, proliferation assay (ATPlite, 72 h)
- Assay type: cell-based, human
- assay setup: Homo sapiens, A704, A-704; read-out: IC50
metric: IC50

>>> measurement("CCCCCCCCc1ccc(OCC(=O)c2nc(C(=O)OC)cs2)cc1 [GK470]")
"> 100 µM"
>>> measurement("CCCCCCCOc1ccc(OCC(=O)c2nc(C(=O)OC)cs2)cc1 [GK420]")
"> 100 µM"

* * *

# maps each entry to its pIC50
- System: panel of 66 cancer cell lines
- measurement notes: cancer cell line screen, proliferation assay (ATPlite, 72 h)
- Format: cell-based, human
- assay setup: Homo sapiens, SW948, SW948; read-out: IC50
pIC50: −log10 of the molar value.
metric: pIC50

>>> measurement("CCCCCCCCc1ccc(OCC(=O)c2nc(C(=O)OC)cs2)cc1 [GK470]")
4.76
>>> measurement("CCCCCCCOc1ccc(OCC(=O)c2nc(C(=O)OC)cs2)cc1 [GK420]")
4.68

* * *

- Tested on: panel of 66 cancer cell lines
- measurement notes: cancer cell line screen, proliferation assay (ATPlite, 72 h)
- Assay type: cell-based, human
- assay setup: Homo sapiens, A-375, A375; read-out: IC50
- Procedure: Targeting specific molecular vulnerabilities in cancer is considered a key approach to reducing the adverse effects of chemotherapy. However, the events that govern the susceptibility to suppression of the cPLA2α in cancer remain largely unexplored. […] Cell growth control. The cellular doubling times of all cell lines are calculated from the t = 0 hours and t = 72 hours growth signals of the untreated cells. […] IC50s were calculated by non-linear regression using IDBS XLfit 5. […]
# maps each entry to its IC50
metric: IC50 (µM)

>>> measurement("CCCCCCCCc1ccc(OCC(=O)c2nc(C(=O)OC)cs2)cc1")
16.1
>>> measurement("CCCCCCCOc1ccc(OCC(=O)c2nc(C(=O)OC)cs2)cc1")
17.2

* * *

# maps each entry to its inhibition at 0.091 mole fraction
- test system: human calcium-independent GVIA iPLA2 (Homo sapiens)
- Sequence (O60733 whole entry): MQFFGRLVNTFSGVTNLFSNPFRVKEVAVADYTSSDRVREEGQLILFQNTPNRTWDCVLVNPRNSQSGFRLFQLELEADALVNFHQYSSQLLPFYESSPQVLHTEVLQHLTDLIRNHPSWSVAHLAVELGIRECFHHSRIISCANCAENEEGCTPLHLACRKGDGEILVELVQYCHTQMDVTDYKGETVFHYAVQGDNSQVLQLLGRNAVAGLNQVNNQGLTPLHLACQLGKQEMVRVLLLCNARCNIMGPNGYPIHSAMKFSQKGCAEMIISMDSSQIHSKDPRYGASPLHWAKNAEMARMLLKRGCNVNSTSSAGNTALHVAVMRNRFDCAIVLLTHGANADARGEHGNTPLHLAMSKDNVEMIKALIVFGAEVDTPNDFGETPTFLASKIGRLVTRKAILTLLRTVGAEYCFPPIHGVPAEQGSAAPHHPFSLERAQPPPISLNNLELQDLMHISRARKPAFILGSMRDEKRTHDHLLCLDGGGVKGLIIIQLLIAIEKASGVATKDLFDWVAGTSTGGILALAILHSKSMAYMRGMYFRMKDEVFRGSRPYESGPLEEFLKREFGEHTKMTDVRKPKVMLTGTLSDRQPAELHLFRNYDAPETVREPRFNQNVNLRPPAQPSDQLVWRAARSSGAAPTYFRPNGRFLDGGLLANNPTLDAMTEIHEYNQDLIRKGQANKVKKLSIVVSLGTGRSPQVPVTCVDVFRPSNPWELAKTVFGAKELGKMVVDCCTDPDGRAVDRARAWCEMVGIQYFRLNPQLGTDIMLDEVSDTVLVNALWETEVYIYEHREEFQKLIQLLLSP
- measurement notes: radioactivity-based mixed micelle assay, GVIA iPLA2
- Format: biochemical
- assay setup: individual technical replicate; read-out: iPLA2 % inhibition at 0.091 mole fraction
metric: inhibition at 0.091 mole fraction

>>> measurement("COC(=O)c1csc(C(=O)COc2ccc(Oc3ccccc3)cc2)n1")
"33.6%"
>>> measurement("CCCCCCCCc1ccc(OC(C)C(=O)c2nc(C(=O)OC)cs2)cc1 (stereo not drawn)")
"59.9%"
>>> measurement("CCCCCCOc1ccc(SCC(=O)c2nc(C(=O)OC)cs2)cc1")
"0%"
>>> measurement("CCCCCCCOc1ccc(OC(C)C(=O)c2nc(C(=O)OC)cs2)cc1 (stereo not drawn)")
"68.3%"
>>> measurement("CCCCCCCOc1ccc(OCC(=O)c2nc(C(=O)OC)cs2)cc1")
"0%"
>>> measurement("CCCCCCCCc1ccc(OCC(=O)c2nc(C(=O)OCC)cs2)cc1")
"41.2%"
>>> measurement("COC(=O)c1csc(C(=O)COc2ccc(Oc3ccc(F)cc3)cc2)n1")
"0%"
>>> measurement("CCCCCCSc1ccc(OC(C)C(=O)c2nc(C(=O)OC)cs2)cc1 (stereo not drawn)")
"73.4%"
>>> measurement("COC(=O)c1csc(C(=O)C(C)Oc2ccc(Oc3ccccc3)cc2)n1 (stereo not drawn)")
"54.3%"
